Target: UniProtKB P29067
Sequence (P29067 whole entry): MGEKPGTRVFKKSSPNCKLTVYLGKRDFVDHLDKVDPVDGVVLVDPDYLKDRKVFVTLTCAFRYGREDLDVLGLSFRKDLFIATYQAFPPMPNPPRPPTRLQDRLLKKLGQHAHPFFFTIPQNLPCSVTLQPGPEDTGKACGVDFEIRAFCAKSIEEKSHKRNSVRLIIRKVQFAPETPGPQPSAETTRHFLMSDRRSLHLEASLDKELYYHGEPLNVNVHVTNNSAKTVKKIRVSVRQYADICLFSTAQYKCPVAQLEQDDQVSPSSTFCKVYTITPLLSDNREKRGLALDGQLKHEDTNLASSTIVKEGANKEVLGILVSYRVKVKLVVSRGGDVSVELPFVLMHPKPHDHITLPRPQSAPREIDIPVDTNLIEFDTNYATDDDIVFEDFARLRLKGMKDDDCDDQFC
Experiment: Binding affinity (Kd) by ITC / thermal shift
Conditions: Cmpd-30 by ITC; other three by combination of ITC and thermal shift; read-out: Kd (dissociation constant), βarr2
Where a name gives a salt, the structure may show the parent alone.
measuredQuantity: Kd
Report as: number unit

Sample records with Kd:
C=C1C(=O)C23[C@H](O)C1CC[C@H]2[C@]12COC3(O)[C@@H](O)[C@@H]1C(C)(C)CC[C@@H]2O :: 261 nM
CN(C)c1n/c(=N/Cc2ccco2)ss1 [Cmpd-30, hydrobromide] :: 2 nM

# input for lookup
Recorded Kd for C=C1C(=O)OC2CC3(C)OC3CC/C(C)=C\C(OC(C)=O)C12 (stereo not drawn) , please?
104 nM

Reference source: patent US20220315574A1
